B1: BBSome complex member BBS1 (Homo sapiens), Q8NFJ9 (parent)
chain: MAAASSSDSDACGAESNEANSKWLDAHYDPMANIHTFSACLALADLHGDGEYKLVVGDLGPGGQQPRLKVLKGPLVMTESPLPALPAAAATFLMEQHEPRTPALALASGPCVYVYKNLRPYFKFSLPQLPPNPLEQDLWNQAKEDRIDPLTLKEMLESIRETAEEPLSIQSLRFLQLELSEMEAFVNQHKSNSIKRQTVITTMTTLKKNLADEDAVSCLVLGTENKELLVLDPEAFTILAKMSLPSVPVFLEVSGQFDVEFRLAAACRNGNIYILRRDSKHPKYCIELSAQPVGLIRVHKVLVVGSTQDSLHGFTHKGKKLWTVQMPAAILTMNLLEQHSRGLQAVMAGLANGEVRIYRDKALLNVIHTPDAVTSLCFGRYGREDNTLIMTTRGGGLIIKILKRTAVFVEGGSEVGPPPAQAMKLNVPRKTRLYVDQTLREREAGTAMHRAFQTDLYLLRLRAARAYLQALESSLSPLSTTAREPLKLHAVVQGLGPTFKLTLHLQNTSTTRPVLGLLVCFLYNEALYSLPRAFFKVPLLVPGLNYPLETFVESLSNKGISDIIKVLVLREGQSAPLLSAHVNMPGSEGLAAA
partner: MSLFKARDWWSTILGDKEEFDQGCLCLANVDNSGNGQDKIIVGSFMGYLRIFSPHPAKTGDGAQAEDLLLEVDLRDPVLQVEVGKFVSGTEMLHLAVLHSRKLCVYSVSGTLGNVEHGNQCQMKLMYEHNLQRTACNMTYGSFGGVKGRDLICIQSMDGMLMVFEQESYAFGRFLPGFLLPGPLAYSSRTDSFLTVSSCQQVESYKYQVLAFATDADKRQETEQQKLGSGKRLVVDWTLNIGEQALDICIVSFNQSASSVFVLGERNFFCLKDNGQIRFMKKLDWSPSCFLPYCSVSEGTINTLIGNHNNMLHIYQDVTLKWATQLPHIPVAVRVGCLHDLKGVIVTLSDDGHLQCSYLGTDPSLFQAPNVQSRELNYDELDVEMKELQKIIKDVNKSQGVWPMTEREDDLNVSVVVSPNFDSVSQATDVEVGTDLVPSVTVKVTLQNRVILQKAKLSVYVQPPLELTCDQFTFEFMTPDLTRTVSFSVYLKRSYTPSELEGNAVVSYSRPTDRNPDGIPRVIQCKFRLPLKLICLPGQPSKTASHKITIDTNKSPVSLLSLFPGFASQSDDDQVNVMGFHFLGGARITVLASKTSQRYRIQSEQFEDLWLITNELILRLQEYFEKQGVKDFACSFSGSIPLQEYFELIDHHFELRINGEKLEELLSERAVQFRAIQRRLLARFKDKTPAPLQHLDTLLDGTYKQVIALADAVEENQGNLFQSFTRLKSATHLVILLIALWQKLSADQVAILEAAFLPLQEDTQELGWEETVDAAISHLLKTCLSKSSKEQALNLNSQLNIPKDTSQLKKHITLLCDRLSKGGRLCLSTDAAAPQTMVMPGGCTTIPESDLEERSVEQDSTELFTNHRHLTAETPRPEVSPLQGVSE

- Variants of: B1
- stated_conditions: with pthb1_human BBS9, Q3SYG4
endpoint: effect of a mutation on the interaction

variant_spec | endpoint | result
N545K | effect of a mutation on the interaction | with no effect
V541E | effect of a mutation on the interaction | with no effect
G586E | effect of a mutation on the interaction | with no effect
R465K | effect of a mutation on the interaction | with no effect
R442E | effect of a mutation on the interaction | with no effect
P547E | effect of a mutation on the interaction | with no effect
L540A | effect of a mutation on the interaction | with no effect
C520E | effect of a mutation on the interaction | with no effect
R440E | effect of a mutation on the interaction | with no effect
N557A | effect of a mutation on the interaction | with no effect
L468E | effect of a mutation on the interaction | with no effect
K536E | effect of a mutation on the interaction | with no effect
G496E | effect of a mutation on the interaction | with no effect
V491K | effect of a mutation on the interaction | with no effect
D455A | effect of a mutation on the interaction | with no effect
T550A | effect of a mutation on the interaction | with no effect
V552A | effect of a mutation on the interaction | with no effect
R512A | effect of a mutation on the interaction | with no effect
L505A | effect of a mutation on the interaction | with no effect
T446K | effect of a mutation on the interaction | with no effect
E472K | effect of a mutation on the interaction | with no effect
S473E | effect of a mutation on the interaction | with no effect
A447E | effect of a mutation on the interaction | with no effect
L458A | effect of a mutation on the interaction | with no effect
A593E | effect of a mutation on the interaction | with no effect
D562A | effect of a mutation on the interaction | with no effect
Y434A | effect of a mutation on the interaction | with no effect
E441K | effect of a mutation on the interaction | with no effect
G416A | effect of a mutation on the interaction | with no effect
N583A | effect of a mutation on the interaction | with no effect
A420E | effect of a mutation on the interaction | with no effect
R512E | effect of a mutation on the interaction | with no effect
V491E | effect of a mutation on the interaction | with no effect
L475K | effect of a mutation on the interaction | with no effect
E549K | effect of a mutation on the interaction | with no effect
T438A | effect of a mutation on the interaction | with no effect
A420K | effect of a mutation on the interaction | with no effect
P531E | effect of a mutation on the interaction | with no effect
T431E | effect of a mutation on the interaction | with no effect
A422K | effect of a mutation on the interaction | with no effect
R450K | effect of a mutation on the interaction | with no effect
P585E | effect of a mutation on the interaction | with no effect
V514E | effect of a mutation on the interaction | with no effect
L425A | effect of a mutation on the interaction | with no effect
Q469A | effect of a mutation on the interaction | with no effect
S579A | effect of a mutation on the interaction | with no effect
T511A | effect of a mutation on the interaction | with no effect
S556E | effect of a mutation on the interaction | with no effect
P428E | effect of a mutation on the interaction | with no effect
G494A | effect of a mutation on the interaction | with no effect
L478E | effect of a mutation on the interaction | with no effect
E484A | effect of a mutation on the interaction | with no effect
P419A | effect of a mutation on the interaction | with no effect
L577E | effect of a mutation on the interaction | with no effect
S476A | effect of a mutation on the interaction | with no effect
Y523K | effect of a mutation on the interaction | with no effect
L439A | effect of a mutation on the interaction | with no effect
V415K | effect of a mutation on the interaction | with no effect
Y434K | effect of a mutation on the interaction | with no effect
G445E | effect of a mutation on the interaction | with no effect
E553K | effect of a mutation on the interaction | with no effect
A490K | effect of a mutation on the interaction | with no effect
N507K | effect of a mutation on the interaction | with no effect
G516K | effect of a mutation on the interaction | with no effect
D436K | effect of a mutation on the interaction | with no effect
P538E | effect of a mutation on the interaction | with no effect
L488A | effect of a mutation on the interaction | with no effect
P547A | effect of a mutation on the interaction | with no effect
L433E | effect of a mutation on the interaction | with no effect
Q469K | effect of a mutation on the interaction | with no effect
L577K | effect of a mutation on the interaction | with no effect
L518A | effect of a mutation on the interaction | with no effect
Q453E | effect of a mutation on the interaction | with no effect
Q437E | effect of a mutation on the interaction | with no effect
M448E | effect of a mutation on the interaction | with no effect
L527K | effect of a mutation on the interaction | with no effect
V427A | effect of a mutation on the interaction | with no effect
F551A | effect of a mutation on the interaction | with no effect
